Data origin, for the record: paper PMC8992272

Test: Stability in water/D2O buffered at different pH values, tracked by 1H NMR
Assay type: physicochemical
Settings: buffered water/D2O, pH 7.4, pH 7.4; read-out: estimated half-life (converted)
Endpoint name: half-life (h)
Please give a number only; it is taken to be in h.

Note down half-life recorded for CC(=O)NC(CSSSSCC(NC(C)=O)C(=O)O)C(=O)O (stereo not shown) [NAC tetrasulfide, N-Acetylcysteine Tetrasulfide]
180

###

Test: Stability in nonbuffered D2O at room and elevated temperature (1H NMR)
Type: physicochemical
Details: nonbuffered D2O, 40 °C; read-out: estimated half-life (converted)
Endpoint name: half-life at 43 mM (days)
Please give a number only; it is taken to be in days.

Note down half-life at 43 mM recorded for CC(=O)NC(CSSSSCC(NC(C)=O)C(=O)O)C(=O)O (stereo not shown) [NAC tetrasulfide, N-Acetylcysteine Tetrasulfide]
8
